These measurements were taken from patent US20170157165.

# TARGET ENTITY: FGF2 (Homo sapiens, UniProt P09038 P09038:135-288)
# Sequence (P09038 135-288, one chain of several): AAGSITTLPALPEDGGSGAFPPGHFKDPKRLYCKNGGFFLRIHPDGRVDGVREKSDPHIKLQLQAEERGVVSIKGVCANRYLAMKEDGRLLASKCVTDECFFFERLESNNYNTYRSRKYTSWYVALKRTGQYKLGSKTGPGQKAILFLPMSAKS
# ASSAY PROTOCOL: cell_activity; HUVEC proliferation
# SETUP CONDITIONS: tags: Peprotech
pIC50: −log10 of the molar value.

>  <BINDER>
CCGAUACUAGGGCAUUAAUGUUACCAGUGUAGUCGG (ssRNA, 2'-F at U8,U16,U21,U28,U30; 2'-OH at G12,G27,G29; all others 2'-OMe; 5' NH2; 3' idT) [aptamer ID 9]

>  <pIC50>
8.43

$$$$
>  <BINDER>
GGGAUACUAGGGCAUUUAUGUUACCAGUGUAGUCCC (ssRNA, 2'-F at U8,U16,U21,U28,U30; 2'-OH at G12,G27,G29; all others 2'-OMe) [aptamer ID 12]

>  <pIC50>
8.64

$$$$
>  <BINDER>
GGGAUACUAGGGCGUUAACGUUACCAGUGUAGUCCC (ssRNA, 2'-F at U8,U16,U21,U28,U30; 2'-OH at G12,G27,G29; all others 2'-OMe) [aptamer ID 10]

>  <pIC50>
8.31

$$$$
